- measured on: Inhibitor of nuclear factor kappa-B kinase subunit alpha (Homo sapiens)
- Sequence (O15111 whole entry): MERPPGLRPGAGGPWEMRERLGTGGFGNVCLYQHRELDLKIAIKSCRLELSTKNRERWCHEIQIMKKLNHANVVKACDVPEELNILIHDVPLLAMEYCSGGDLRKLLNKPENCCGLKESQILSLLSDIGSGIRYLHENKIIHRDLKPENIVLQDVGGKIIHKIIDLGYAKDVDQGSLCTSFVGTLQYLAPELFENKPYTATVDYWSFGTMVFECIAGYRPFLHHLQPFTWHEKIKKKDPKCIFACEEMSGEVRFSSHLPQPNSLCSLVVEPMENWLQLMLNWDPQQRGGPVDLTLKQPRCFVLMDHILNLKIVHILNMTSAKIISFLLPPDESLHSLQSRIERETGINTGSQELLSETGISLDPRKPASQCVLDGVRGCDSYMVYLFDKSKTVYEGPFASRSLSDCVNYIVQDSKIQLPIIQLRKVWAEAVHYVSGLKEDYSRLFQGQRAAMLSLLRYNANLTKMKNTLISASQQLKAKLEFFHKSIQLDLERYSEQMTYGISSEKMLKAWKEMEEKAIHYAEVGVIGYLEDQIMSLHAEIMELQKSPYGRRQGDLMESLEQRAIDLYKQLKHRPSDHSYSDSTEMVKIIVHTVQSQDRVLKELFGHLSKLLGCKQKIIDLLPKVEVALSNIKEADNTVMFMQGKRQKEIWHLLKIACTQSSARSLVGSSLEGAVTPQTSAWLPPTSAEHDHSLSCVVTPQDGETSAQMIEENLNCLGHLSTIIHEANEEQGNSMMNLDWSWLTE
- assay text: Inhibition of IKK1
readout: IC50 (nM)

structure_smiles=CNCCNc1nc2cc3ccccc3cc2n2c(C)cnc12 readout=IC50 measured_result=390
structure_smiles=CNc1nc2cc3ccccc3cc2c2c1ncn2C readout=IC50 measured_result=990
structure_smiles=Cn1cnc2c(NCCN)nc3cc4ccccc4cc3c21 readout=IC50 measured_result=1600
structure_smiles=Cc1cnc2c(NCCO)nc3cc4ccccc4cc3n12 readout=IC50 measured_result=870

====

- measured on: Inhibitor of nuclear factor kappa-B kinase subunit beta (Homo sapiens)
- Sequence (O14920 whole entry): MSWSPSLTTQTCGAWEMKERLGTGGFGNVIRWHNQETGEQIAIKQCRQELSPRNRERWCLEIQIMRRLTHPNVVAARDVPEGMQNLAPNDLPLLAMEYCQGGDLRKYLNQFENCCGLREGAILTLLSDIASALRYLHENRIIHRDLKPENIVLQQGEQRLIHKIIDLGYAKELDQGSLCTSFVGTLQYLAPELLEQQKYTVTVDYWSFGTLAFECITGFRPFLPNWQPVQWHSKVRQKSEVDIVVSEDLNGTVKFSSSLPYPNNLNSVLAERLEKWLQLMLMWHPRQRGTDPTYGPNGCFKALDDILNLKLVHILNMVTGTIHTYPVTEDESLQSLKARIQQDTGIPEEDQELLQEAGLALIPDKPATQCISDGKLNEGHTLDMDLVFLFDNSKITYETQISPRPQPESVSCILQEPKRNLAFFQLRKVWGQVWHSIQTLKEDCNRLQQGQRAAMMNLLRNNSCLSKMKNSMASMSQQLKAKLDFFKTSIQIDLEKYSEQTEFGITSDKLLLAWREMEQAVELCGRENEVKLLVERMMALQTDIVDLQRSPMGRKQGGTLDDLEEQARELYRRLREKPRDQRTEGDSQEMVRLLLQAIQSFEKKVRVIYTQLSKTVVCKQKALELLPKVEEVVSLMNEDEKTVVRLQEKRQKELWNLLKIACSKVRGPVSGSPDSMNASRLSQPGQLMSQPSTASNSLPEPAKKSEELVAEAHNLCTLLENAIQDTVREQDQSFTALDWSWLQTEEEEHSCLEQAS
- assay text: Inhibition of LPS-induced TNFalpha secretion in THP1 cells
- Format: functional, cell-based, THP-1
pIC50: −log10 of the molar value.
Collected pIC50 values appear next to each entry.
readout: pIC50

structure_smiles=CNc1nc2cc3ccccc3cc2c2c(C)cnn12 measured_result=5.08
structure_smiles=CNc1nc2cc3ccccc3cc2n2c(C)cnc12 measured_result=6.47
structure_smiles=CNCCNc1nc2cc3ccccc3cc2n2c(C)cnc12 measured_result=6.00
structure_smiles=CNCCNc1nc2cc3ccccc3cc2c2c(C)cnn12 measured_result=5.82
structure_smiles=Cc1cnc2c(NCCO)nc3cc4ccccc4cc3n12 measured_result=5.85
structure_smiles=Cc1cnc2c(NCCN3CCCCC3)nc3cc4ccccc4cc3n12 measured_result=6.22
structure_smiles=Cn1cnc2c(NCCN)nc3cc4ccccc4cc3c21 measured_result=5.23
structure_smiles=CNc1nc2cc3ccccc3cc2c2c1ncn2C measured_result=6.02

====

- measured on: Inhibitor of nuclear factor kappa-B kinase subunit beta (Homo sapiens, UniProt O14920)
- assay text: Inhibition of IKK2
pIC50: −log10 of the molar value.
readout: pIC50

structure_smiles=Cn1cnc2c(NCCN)nc3cc4ccccc4cc3c21 readout=pIC50 measured_result=7.24
structure_smiles=Cc1cnc2c(NCCO)nc3cc4ccccc4cc3n12 readout=pIC50 measured_result=7.74
structure_smiles=Cc1cnc2c(NCCN3CCCCC3)nc3cc4ccccc4cc3n12 readout=pIC50 measured_result=7.34
structure_smiles=CNCCNc1nc2cc3ccccc3cc2n2c(C)cnc12 readout=pIC50 measured_result=7.64
structure_smiles=CNCCNc1nc2cc3ccccc3cc2c2c(C)cnn12 readout=pIC50 measured_result=7.46
structure_smiles=CNc1nc2cc3ccccc3cc2n2c(C)cnc12 readout=pIC50 measured_result=7.74
structure_smiles=CNc1nc2cc3ccccc3cc2c2c(C)cnn12 readout=pIC50 measured_result=7.96
